- experimental.target: NaV1.5 (Homo sapiens (Human))
- method: Sodium Influx Assay (Flux), NaV1.5
- condition.summary: read-out: Flux NaV1.5 IC50; Trex HEK293 cells, ANG2 dye; arithmetic mean
pIC50: −log10 of the molar value. Structures can show the parent of a compound that is named as a salt.
Quick reference for pIC50 among some molecules

The examples below pair each entry with its known result.
# molecule, pIC50
rows = [
    ("C[C@H](c1ccccc1)N1CCC(Oc2ccc(S(=O)(=O)Nc3cscn3)c(F)c2Cl)CC1 [Example 227, formate]", "< 4.52"),
    ("O=S(=O)(Nc1cscn1)c1cc(Cl)c(N[C@H]2CCN(Cc3ccccc3)C2)cc1F [Example 258, formate]", 4.81),
    ("Cc1cc(S(=O)(=O)Nc2cscn2)c(F)cc1N(C)[C@H]1CCN(Cc2ccc(O)cc2)C1", "< 4.52"),
]

Here's the next entry for you.
Query: What value of pIC50 has been reported for the following molecule? Cc1cc(S(=O)(=O)Nc2cscn2)c(F)cc1N(C)[C@H]1CCN(Cc2cc3n(n2)CCCC3)C1
Reply: < 4.52

###

- experimental.target: NaV1.5 (Homo sapiens (Human))
- method: Sodium Influx Assay (Flux), NaV1.5
- condition.summary: read-out: Flux NaV1.5 IC50; Trex HEK293 cells, ANG2 dye; arithmetic mean
Structures can show the parent of a compound that is named as a salt.
measured.metric: pIC50
# pIC50 = -log10(concentration in molar units)

# molecule, measured.metric, value.measured
rows = [
    ("O=S(=O)(Nc1nccs1)c1ccc(NC2CN(Cc3ccccc3)C2)c(Cl)c1 [Example 50, 2,2,2-trifluoroacetate]", "pIC50", 5.24),
]

Query: Record request: pIC50 value, item CN(c1ccc(S(=O)(=O)Nc2cscn2)cc1Cl)[C@H]1CCN(Cc2cc(Cl)ccc2F)C1 [Example 254, formate]
Reply: 6.02

Query: Entry C[C@@H]1C[C@@H](Oc2ccc(S(=O)(=O)Nc3nccs3)cc2Cl)CCN1Cc1ccccc1 (relative stereo) [Example 73] has what pIC50?
Reply: 4.88

Query: What pIC50 value was documented for this molecule, CCc1cc(S(=O)(=O)Nc2cscn2)c(F)cc1N(C)[C@H]1CCN(Cc2ccccc2)C1 [Example 290, 2,2,2-trifluoroacetate] ?
Reply: 5.28

###

- experimental.target: NaV1.5 (Homo sapiens (Human), UniProt Q14524)
- Sequence (Q14524 other isoform, or with tags, fused parts or gaps): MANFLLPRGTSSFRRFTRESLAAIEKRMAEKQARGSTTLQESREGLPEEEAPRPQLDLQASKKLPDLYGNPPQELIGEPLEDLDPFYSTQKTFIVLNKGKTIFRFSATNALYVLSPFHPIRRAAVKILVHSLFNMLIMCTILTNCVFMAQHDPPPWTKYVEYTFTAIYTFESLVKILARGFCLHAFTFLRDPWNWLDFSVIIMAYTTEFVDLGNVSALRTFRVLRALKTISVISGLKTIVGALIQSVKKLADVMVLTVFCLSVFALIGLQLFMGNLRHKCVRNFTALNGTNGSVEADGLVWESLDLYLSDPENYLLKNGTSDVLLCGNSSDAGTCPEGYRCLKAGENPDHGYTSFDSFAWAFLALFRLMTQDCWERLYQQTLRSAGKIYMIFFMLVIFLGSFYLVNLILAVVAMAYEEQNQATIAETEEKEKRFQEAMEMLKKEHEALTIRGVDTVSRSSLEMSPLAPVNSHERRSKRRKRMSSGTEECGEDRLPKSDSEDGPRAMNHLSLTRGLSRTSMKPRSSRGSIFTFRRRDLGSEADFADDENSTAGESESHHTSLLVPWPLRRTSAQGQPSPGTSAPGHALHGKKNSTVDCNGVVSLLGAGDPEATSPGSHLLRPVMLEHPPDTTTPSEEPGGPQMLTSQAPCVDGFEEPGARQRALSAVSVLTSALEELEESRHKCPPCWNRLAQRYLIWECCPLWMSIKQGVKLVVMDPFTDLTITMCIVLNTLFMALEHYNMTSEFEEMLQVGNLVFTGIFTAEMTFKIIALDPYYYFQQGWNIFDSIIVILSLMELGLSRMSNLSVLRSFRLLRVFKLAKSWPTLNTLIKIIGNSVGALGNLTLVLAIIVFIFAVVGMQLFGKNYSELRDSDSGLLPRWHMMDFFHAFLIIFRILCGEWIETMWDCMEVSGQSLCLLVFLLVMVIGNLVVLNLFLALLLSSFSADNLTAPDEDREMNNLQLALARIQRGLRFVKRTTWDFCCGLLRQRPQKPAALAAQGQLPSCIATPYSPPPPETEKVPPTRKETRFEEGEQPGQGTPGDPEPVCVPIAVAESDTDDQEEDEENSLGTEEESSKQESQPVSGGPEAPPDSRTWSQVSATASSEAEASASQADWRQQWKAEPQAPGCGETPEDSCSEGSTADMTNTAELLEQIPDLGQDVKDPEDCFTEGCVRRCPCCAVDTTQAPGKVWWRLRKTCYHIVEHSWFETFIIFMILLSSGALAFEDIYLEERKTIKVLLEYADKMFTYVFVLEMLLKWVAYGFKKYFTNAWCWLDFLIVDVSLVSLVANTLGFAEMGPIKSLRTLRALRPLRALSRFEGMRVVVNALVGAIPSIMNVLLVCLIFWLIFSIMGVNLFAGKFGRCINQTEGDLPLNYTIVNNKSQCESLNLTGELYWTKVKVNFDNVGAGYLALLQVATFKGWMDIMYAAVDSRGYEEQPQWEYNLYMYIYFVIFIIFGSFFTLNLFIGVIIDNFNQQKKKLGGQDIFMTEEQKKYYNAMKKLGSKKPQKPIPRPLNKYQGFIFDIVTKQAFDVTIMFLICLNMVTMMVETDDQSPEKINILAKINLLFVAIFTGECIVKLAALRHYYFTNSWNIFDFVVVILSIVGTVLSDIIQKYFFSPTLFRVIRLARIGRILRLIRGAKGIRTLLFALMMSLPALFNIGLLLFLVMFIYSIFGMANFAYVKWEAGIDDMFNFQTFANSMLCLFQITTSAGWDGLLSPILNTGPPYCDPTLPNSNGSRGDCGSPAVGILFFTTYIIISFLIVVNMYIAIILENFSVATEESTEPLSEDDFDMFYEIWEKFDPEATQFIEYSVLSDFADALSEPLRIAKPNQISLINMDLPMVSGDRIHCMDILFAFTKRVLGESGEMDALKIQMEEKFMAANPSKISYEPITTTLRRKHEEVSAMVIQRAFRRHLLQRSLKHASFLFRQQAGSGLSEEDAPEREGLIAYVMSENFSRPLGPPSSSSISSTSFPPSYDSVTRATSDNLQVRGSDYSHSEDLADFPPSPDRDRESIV
- method: Sodium Influx Assay (Flux), NaV1.5
- condition.summary: read-out: Flux NaV1.5 IC50; Trex HEK293 cells, ANG2 dye; arithmetic mean
Structures can show the parent of a compound that is named as a salt.
Cut-off 8 µM on IC50: below means Met, at or above means Not met.

# molecule, experimental.target, label.value
records = [
    ("CC(c1ccccc1)N1CCC(Oc2ccc(S(=O)(=O)Nc3nccs3)cc2Cl)CC1 (stereo not shown) [Example 52]", "NaV1.5 (Homo sapiens (Human), UniProt Q14524)", "Not met"),
    ("CN(c1cc(F)c(S(=O)(=O)Nc2cscn2)cc1Cl)[C@H]1CCN(Cc2ccccc2OC(F)F)C1 [Example 210]", "NaV1.5 (Homo sapiens (Human), UniProt Q14524)", "Not met"),
    ("Cc1ccc(CN2CCC(Oc3ccc(S(=O)(=O)Nc4nccs4)cc3Cl)CC2)cc1C [Example 93]", "NaV1.5 (Homo sapiens (Human), UniProt Q14524)", "Not met"),
    ("Cc1c(N(C)[C@H]2CCN(Cc3cccc(F)c3F)C2)cc(F)c(S(=O)(=O)Nc2cscn2)c1F [Example 237, formate]", "NaV1.5 (Homo sapiens (Human), UniProt Q14524)", "Not met"),
]

Query: Identify whether the molecule O=S(=O)(Nc1nccs1)c1ccc(OC2CCN(Cc3ccccc3Cl)CC2)c(Cl)c1 [Example 13] records IC50 below 8 µM.
Reply: Met

Query: For this molecule, is IC50 lower than 8 µM? O=S(=O)(Nc1nccs1)c1ccc(OC2CCN(C3CCc4ccccc43)CC2)c(Cl)c1 (stereo not shown) [Example 49, 2,2,2-trifluoroacetate]
Reply: Met
